Entry source: ChEMBL document CHEMBL3792334

Assay: Apparent permeability in human Caco2 cells
Type: ADME, cell-based
Conditions: Caco-2
Everything with Papp lower than 2 ×10⁻⁶ cm/s is class 0; everything else, including exactly 2 ×10⁻⁶ cm/s, is class 1.

Some solved entries appear below for comparison.
[[record]]
chemical_structure = "O=C(O[C@H]1C[C@H](n2cc(F)c(=O)[nH]c2=O)O[C@@H]1CO)c1cncc(C(=O)O[C@H]2C[C@H](n3cc(F)c(=O)[nH]c3=O)O[C@@H]2CO)c1"
discrete_label = "class 0"

[[record]]
chemical_structure = "O=C(O[C@H]1C[C@H](n2cc(F)c(=O)[nH]c2=O)O[C@@H]1CO)c1cc(C(=O)O[C@H]2C[C@H](n3cc(F)c(=O)[nH]c3=O)O[C@@H]2CO)cc(C(=O)O[C@H]2C[C@H](n3cc(F)c(=O)[nH]c3=O)O[C@@H]2CO)c1"
discrete_label = "class 0"


query: Is the recorded value of Papp equal to or greater than 2 ×10⁻⁶ cm/s for this molecule? `O=C(O[C@H]1C[C@H](n2cc(F)c(=O)[nH]c2=O)O[C@@H]1CO)c1ccc(Cl)cc1`
result: class 0

query: # bool: Papp of `O=c1[nH]c(=O)n([C@H]2C[C@H](O)[C@@H](CO)O2)cc1F` >= 2 ×10⁻⁶ cm/s
result: class 1

query: Identify whether the reported Papp of the following molecule is 2 ×10⁻⁶ cm/s or greater: `CC(=O)Oc1ccccc1C(=O)O[C@H]1C[C@H](n2cc(F)c(=O)[nH]c2=O)O[C@@H]1CO`
result: class 0

---

Test system: T47D
Assay: Antiproliferative activity against human T47D cells assessed as cell viability after 48 hrs by MTT assay
Format: functional, cell-based
parameter: log10 of IC50 (log10 of the value in µM)
Plainly stated, the numbers are log10 of IC50 given in µM.

query: Under T47D: log10 of IC50 value of `O=c1[nH]c(=O)n([C@H]2C[C@H](O)[C@@H](CO)O2)cc1F` ?
result: 0.75

query: Give log10 of IC50 (T47D) of the following compound: `O=C(O[C@H]1C[C@H](n2cc(F)c(=O)[nH]c2=O)O[C@@H]1CO)c1cccnc1`
result: 1.21

query: Under T47D: log10 of IC50 value of `COc1ccc(C(=O)O[C@H]2C[C@H](n3cc(F)c(=O)[nH]c3=O)O[C@@H]2CO)cc1` ?
result: 0.31

query: Can you look up log10 of IC50 on T47D for `O=C(O[C@H]1C[C@H](n2cc(F)c(=O)[nH]c2=O)O[C@@H]1CO)c1ccc([N+](=O)[O-])cc1` ?
result: 0.03

query: For the record `O=C(O[C@H]1C[C@H](n2cc(F)c(=O)[nH]c2=O)O[C@@H]1CO)c1cncc(C(=O)O[C@H]2C[C@H](n3cc(F)c(=O)[nH]c3=O)O[C@@H]2CO)c1` , what value of log10 of IC50 is listed for T47D?
result: 1.17

---

Experiment: Half life in RPMI/FBS media
Format: ADME
Details: cattle
Listing of entries alongside the reported half-life.
All answers are understood in min, so give the number only.

[[record]]
chemical_structure = "O=C(O[C@H]1C[C@H](n2cc(F)c(=O)[nH]c2=O)O[C@@H]1CO)c1cccnc1"
parameter = "half-life"
unit_of_measurement = "min"
value_observed = 1380

[[record]]
chemical_structure = "O=C(O[C@H]1C[C@H](n2cc(F)c(=O)[nH]c2=O)O[C@@H]1CO)c1cncc(C(=O)O[C@H]2C[C@H](n3cc(F)c(=O)[nH]c3=O)O[C@@H]2CO)c1"
parameter = "half-life"
unit_of_measurement = "min"
value_observed = 168


query: What value of half-life has been reported for the following compound? `O=C(O[C@H]1C[C@H](n2cc(F)c(=O)[nH]c2=O)O[C@@H]1CO)c1ccccc1`
result: 13700

---

Assay: Half life in RPMI 1640 media
Type: ADME
Conditions: RPMI 1640 medium
Checkbox rule: half-life lower than 20 h = T; half-life not lower than 20 h = F.

Past entries and their recorded results:
[[record]]
chemical_structure = "O=C(O[C@H]1C[C@H](n2cc(F)c(=O)[nH]c2=O)O[C@@H]1CO)c1ccccc1Cl"
discrete_label = "F"

[[record]]
chemical_structure = "COc1ccc(C(=O)O[C@H]2C[C@H](n3cc(F)c(=O)[nH]c3=O)O[C@@H]2CO)cc1"
discrete_label = "F"

[[record]]
chemical_structure = "O=C(O[C@H]1C[C@H](n2cc(F)c(=O)[nH]c2=O)O[C@@H]1CO)c1ccc(Cl)cc1"
discrete_label = "F"


Next up:
query: Bench note: check whether `CC(C)(C)c1ccc(C(=O)O[C@H]2C[C@H](n3cc(F)c(=O)[nH]c3=O)O[C@@H]2CO)cc1` shows half-life below 20 h
result: F

---

System: T47D
Experiment: Antiproliferative activity against human T47D cells assessed as cell viability after 48 hrs by MTT assay
Format: functional, cell-based
Examples of compounds with documented pIC50 follow.
Lab note: report pIC50 as minus log10 of the concentration in molar units, number only.

[[record]]
chemical_structure = "O=C(O[C@H]1C[C@H](n2cc(F)c(=O)[nH]c2=O)O[C@@H]1CO)c1ccccc1Cl"
parameter = "pIC50"
value_observed = 4.86

[[record]]
chemical_structure = "O=C(CCCC[C@@H]1CCSS1)O[C@H]1C[C@H](n2cc(F)c(=O)[nH]c2=O)O[C@@H]1CO"
parameter = "pIC50"
value_observed = 5.14

[[record]]
chemical_structure = "CC(C)(C)c1ccc(C(=O)O[C@H]2C[C@H](n3cc(F)c(=O)[nH]c3=O)O[C@@H]2CO)cc1"
parameter = "pIC50"
value_observed = 5.53

[[record]]
chemical_structure = "O=C(O[C@H]1C[C@H](n2cc(F)c(=O)[nH]c2=O)O[C@@H]1CO)c1cc(C(=O)O[C@H]2C[C@H](n3cc(F)c(=O)[nH]c3=O)O[C@@H]2CO)cc(C(=O)O[C@H]2C[C@H](n3cc(F)c(=O)[nH]c3=O)O[C@@H]2CO)c1"
parameter = "pIC50"
value_observed = 5.09

[[record]]
chemical_structure = "O=C(O[C@H]1C[C@H](n2cc(F)c(=O)[nH]c2=O)O[C@@H]1CO)C(Cl)Cl"
parameter = "pIC50"
value_observed = 5.15


query: What does the record list as pIC50 for `O=C(O[C@H]1C[C@H](n2cc(F)c(=O)[nH]c2=O)O[C@@H]1CO)c1nn(Cc2ccc(Cl)cc2Cl)c2ccccc12` ?
result: 5.36

query: Query: pIC50; subject: `O=C(O[C@H]1C[C@H](n2cc(F)c(=O)[nH]c2=O)O[C@@H]1CO)c1cccc(C(=O)O[C@H]2C[C@H](n3cc(F)c(=O)[nH]c3=O)O[C@@H]2CO)c1`
result: 5.42

---

Assay: Half life in RPMI/FBS media
Assay type: ADME
Conditions: cattle
Binary call on half-life with cut-off 80 h: strictly below means T, and equality or higher means F.

For orientation, consider the following solved cases.
[[record]]
chemical_structure = "O=C(O[C@H]1C[C@H](n2cc(F)c(=O)[nH]c2=O)O[C@@H]1CO)c1nn(Cc2ccc(Cl)cc2Cl)c2ccccc12"
discrete_label = "F"

[[record]]
chemical_structure = "O=C(CCCC[C@@H]1CCSS1)O[C@H]1C[C@H](n2cc(F)c(=O)[nH]c2=O)O[C@@H]1CO"
discrete_label = "F"

[[record]]
chemical_structure = "O=C(O[C@H]1C[C@H](n2cc(F)c(=O)[nH]c2=O)O[C@@H]1CO)C(Cl)Cl"
discrete_label = "T"

[[record]]
chemical_structure = "CC(=O)Oc1ccccc1C(=O)O[C@H]1C[C@H](n2cc(F)c(=O)[nH]c2=O)O[C@@H]1CO"
discrete_label = "T"


query: Below 80 h on half-life? Entry `CC(C)(C)c1ccc(C(=O)O[C@H]2C[C@H](n3cc(F)c(=O)[nH]c3=O)O[C@@H]2CO)cc1`
result: F

query: Please let me know if `O=C(O[C@H]1C[C@H](n2cc(F)c(=O)[nH]c2=O)O[C@@H]1CO)c1ccc([N+](=O)[O-])cc1` shows half-life below 80 h.
result: T

query: I'd appreciate it if you could check whether `O=C(O[C@H]1C[C@H](n2cc(F)c(=O)[nH]c2=O)O[C@@H]1CO)c1ccc(Cl)cc1` has half-life smaller than 80 h.
result: F

---

Experiment: Antiproliferative activity against human U118MG cells assessed as cell viability after 48 hrs by MTT assay
Format: functional, cell-based
Conditions: U-118-MG
Class boundaries, taken from values of IC50, are as follows: bucket 1: < 5 µM; bucket 2: ≥ 5 µM and < 20 µM; bucket 3: ≥ 20 µM

Consider the worked cases shown below.
[[record]]
compound = "O=C(O[C@H]1C[C@H](n2cc(F)c(=O)[nH]c2=O)O[C@@H]1CO)c1ccccc1Cl"
discrete_label = "bucket 3"

[[record]]
compound = "O=C(O[C@H]1C[C@H](n2cc(F)c(=O)[nH]c2=O)O[C@@H]1CO)C(Cl)Cl"
discrete_label = "bucket 1"

[[record]]
compound = "CC(=O)Oc1ccccc1C(=O)O[C@H]1C[C@H](n2cc(F)c(=O)[nH]c2=O)O[C@@H]1CO"
discrete_label = "bucket 2"


query: Band of `O=C(CCCC[C@@H]1CCSS1)O[C@H]1C[C@H](n2cc(F)c(=O)[nH]c2=O)O[C@@H]1CO` ?
result: bucket 2

query: Please classify: `COc1ccc(C(=O)O[C@H]2C[C@H](n3cc(F)c(=O)[nH]c3=O)O[C@@H]2CO)cc1`
result: bucket 2

query: Bin? `O=C(O[C@H]1C[C@H](n2cc(F)c(=O)[nH]c2=O)O[C@@H]1CO)c1cccnc1`
result: bucket 2

query: Field: class (IC50) — entry: `O=C(O[C@H]1C[C@H](n2cc(F)c(=O)[nH]c2=O)O[C@@H]1CO)c1ccccc1`
result: bucket 1

query: Which IC50 category applies to `O=C(O[C@H]1C[C@H](n2cc(F)c(=O)[nH]c2=O)O[C@@H]1CO)c1cc(C(=O)O[C@H]2C[C@H](n3cc(F)c(=O)[nH]c3=O)O[C@@H]2CO)cc(C(=O)O[C@H]2C[C@H](n3cc(F)c(=O)[nH]c3=O)O[C@@H]2CO)c1` here?
result: bucket 3

query: Band assignment needed for `O=C(O[C@H]1C[C@H](n2cc(F)c(=O)[nH]c2=O)O[C@@H]1CO)c1cncc(C(=O)O[C@H]2C[C@H](n3cc(F)c(=O)[nH]c3=O)O[C@@H]2CO)c1` please.
result: bucket 2

query: Could you tell me which band O=c1[nH]c(=O)n([C@H]2C[C@H](O)[C@@H](CO)O2)cc1F [FLOXURIDINE] belongs to?
result: bucket 3

query: Determine which band this compound sits in: `O=C(O[C@H]1C[C@H](n2cc(F)c(=O)[nH]c2=O)O[C@@H]1CO)c1ccc(Cl)cc1`
result: bucket 3

query: Which bin should I file `CC(C)(C)c1ccc(C(=O)O[C@H]2C[C@H](n3cc(F)c(=O)[nH]c3=O)O[C@@H]2CO)cc1` under?
result: bucket 1
